- System: Abutilon theophrasti (ABUTH)
- experiment summary: Post-emergence herbicidal glasshouse test (Table B1)
- Format: in vivo
- measurement setup: applied at 125 g/ha, evaluated after 13 days
quantity kind: POST Application ABUTH, percentage damage on five-point scale

# compound, result
records = [
    ("Cn1nnnc1NC(=O)c1ccc(OC(F)F)c(NC(=O)c2nc(Cl)ccc2Cl)c1Cl", "4 (4=60-79%)"),
    ("Cn1nnnc1NC(=O)c1ccc(OC(F)F)c(NC(=O)c2cc(Cl)ccn2)c1Cl", "4 (4=60-79%)"),
    ("CCC(=O)N(C)c1c(OC(F)F)ccc(C(=O)Nc2nnnn2C)c1Cl", "4 (4=60-79%)"),
    ("Cn1nnnc1NC(=O)c1ccc(OC(F)F)c(NC(=O)c2ccc(C(F)(F)F)cn2)c1Cl", "5 (5=80-100%)"),
    ("CCC(C)C(=O)Nc1c(OC(F)(F)F)ccc(C(=O)Nc2nnnn2C)c1Cl (centres unmarked)", "5 (5=80-100%)"),
    ("Cn1nnnc1NC(=O)c1ccc(OC(F)F)c(NC(=O)C2CC2)c1Cl", "5 (5=80-100%)"),
    ("Cn1nnnc1NC(=O)c1ccc(OC(F)F)c(NC(=O)c2ncc(Cl)cc2Cl)c1Cl", "4 (4=60-79%)"),
    ("Cc1c(C(=O)Nc2c(OC(F)F)ccc(C(=O)Nc3nnnn3C)c2Cl)nn(C)c1C", "4 (4=60-79%)"),
    ("Cn1nnnc1NC(=O)c1ccc(OC(F)(F)F)c(NC(=O)c2ccccn2)c1Cl", "4 (4=60-79%)"),
    ("Cn1nnnc1NC(=O)c1ccc(OC(F)F)c(N2CCCCC2=O)c1Cl", "5 (5=80-100%)"),
    ("CCC(=O)Nc1c(OC(F)F)ccc(C(=O)Nc2nnnn2C)c1C", "5 (5=80-100%)"),
    ("CCC(=O)N(CC)c1c(OC(F)F)ccc(C(=O)Nc2nnnn2C)c1Cl", "4 (4=60-79%)"),
    ("CC(F)C(=O)Nc1c(OC(F)F)ccc(C(=O)Nc2nnnn2C)c1Cl (centres unmarked)", "4 (4=60-79%)"),
    ("Cn1nnnc1NC(=O)c1ccc(OC(F)F)c(NC(=O)C2CC2(F)F)c1Cl (centres unmarked)", "4 (4=60-79%)"),
    ("Cn1nnnc1NC(=O)c1ccc(OC(F)F)c(NC(=O)CC2CC2)c1Cl", "5 (5=80-100%)"),
    ("CCn1nnnc1NC(=O)c1ccc(OC(F)(F)F)c(NC(=O)C(F)F)c1Cl", "4 (4=60-79%)"),
    ("CCn1nnnc1NC(=O)c1ccc(OC(F)(F)F)c(NC(=O)c2ccccc2OC)c1Cl", "4 (4=60-79%)"),
    ("CCN(C(=O)C(C)F)c1c(OC(F)F)ccc(C(=O)Nc2nnnn2C)c1Cl (centres unmarked)", "4 (4=60-79%)"),
    ("COc1ccc(C(=O)Nc2c(OC(F)F)ccc(C(=O)Nc3nnnn3C)c2Cl)cc1", "4 (4=60-79%)"),
    ("Cn1nnnc1NC(=O)c1ccc(OC(F)F)c(NC(=O)c2ccc(F)cc2)c1Cl", "4 (4=60-79%)"),
    ("CN(C(=O)CC1CC1)c1c(OC(F)F)ccc(C(=O)Nc2nnnn2C)c1Cl", "5 (5=80-100%)"),
    ("CC(=O)Nc1c(OC(F)(F)C(F)F)ccc(C(=O)Nc2nnnn2C)c1Cl", "4 (4=60-79%)"),
    ("Cn1nnnc1NC(=O)c1ccc(OC(F)F)c(NC(=O)c2ccccn2)c1Cl", "4 (4=60-79%)"),
]

Just for reference, patent US20230219904A1 is where these values come from.
